Tested on: kidney
assayRemarks: Toxicity to kidney determined by blood examination
Assay type: in vivo, mice
testParameters: serum, 200 mg/kg mouse intraperitoneally; Table 2, no administration 24
readoutName: Urea nitrogen (mg/dL)
Answers are plain numbers, in mg/dL.

Reference set, count: 3
molecule="O=C(O)c1cc(C(=O)O)c2c(n1)c1nc(Cc3ccccc3)oc1c1cc(C(=O)O)[nH]c12 [Benzyl OPQ]" unitspec=mg/dL measurednumber=25
molecule="O=C(O)c1cc(C(=O)O)c2c(n1)c1ncoc1c1cc(C(=O)O)[nH]c12 [OPQ, oxazopyrroloquinoline]" unitspec=mg/dL measurednumber=28
molecule="CCC(C)c1nc2c3nc(C(=O)O)cc(C(=O)O)c3c3[nH]c(C(=O)O)cc3c2o1 (stereo not shown) [1-Methylpropyl OPQ]" unitspec=mg/dL measurednumber=27

Switching to the query record.
Exercise: Value lookup for Urea nitrogen; key = CSCCc1nc2c3nc(C(=O)O)cc(C(=O)O)c3c3[nH]c(C(=O)O)cc3c2o1 [2-Methylthioethyl OPQ]
Key: 26

----------
testedSystem: aldose reductase of kidney (Canis lupus familiaris)
assayRemarks: Inhibitory effect on aldose reductase of kidney
Format: biochemical, dog
testParameters: concentration 2x10^-7 M; read-out: Degree of inhibition for aldose reductase (%)
I'd appreciate it if you could supply inhibition at 0.2 µM values for the items below.
One number for each entry, in %.

molecule="O=C(O)c1cc(C(=O)O)c2c(n1)c1ncoc1c1cc(C(=O)O)[nH]c12 [OPQ, oxazopyrroloquinoline]" measurednumber=62.1
molecule="O=C(O)c1cc(C(=O)O)c2c(n1)c1nc(CO)oc1c1cc(C(=O)O)[nH]c12 [Hydroxymethyl OPQ]" measurednumber=26.7
molecule="Cc1nc2c3nc(C(=O)O)cc(C(=O)O)c3c3[nH]c(C(=O)O)cc3c2o1 [Methyl OPQ]" measurednumber=31.4
molecule="CCC(C)c1nc2c3nc(C(=O)O)cc(C(=O)O)c3c3[nH]c(C(=O)O)cc3c2o1 (centres unmarked) [1-Methylpropyl OPQ]" measurednumber=45.9

// next entry
Exercise: # get_value(readout='inhibition at 0.2 µM', item= CC(C)Cc1nc2c3nc(C(=O)O)cc(C(=O)O)c3c3[nH]c(C(=O)O)cc3c2o1 [2-Methylpropyl OPQ] )
Key: 30.2
